Reference for the values: patent US20220380459A1

Molecular target: T1, human CD33 extracellular domain (human, UniProt P20138 18-259)
T1 construct: soluble monomeric ECD; also called human CD33 ECD; hCD33
Assay: SPR, Fab captured, 37C;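 further: fabs captured on an anti-Fab surface, soluble monomeric CD33 ECD flowed over at several concentrations, double-referenced curves fit to a 1:1 binding model, KD taken as koff/kon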
Below, each entry is listed with its recorded Kd.
Respond with the bare value in nM.

Take a look at these entries with their results.
binder	units	Kd
ADI-11815 Fab (Fab, V domains shown, Fab fragment; also called Ab7) VH: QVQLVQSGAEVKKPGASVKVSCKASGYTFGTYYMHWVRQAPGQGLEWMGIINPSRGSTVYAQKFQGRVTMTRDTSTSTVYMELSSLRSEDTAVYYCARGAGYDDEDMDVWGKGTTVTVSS VL: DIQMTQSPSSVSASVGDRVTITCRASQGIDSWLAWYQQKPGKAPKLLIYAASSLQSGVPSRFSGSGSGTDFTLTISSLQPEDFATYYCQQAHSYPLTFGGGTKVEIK	nM	0.23
ADI-11809 Fab (Fab, V domains shown, Fab fragment; also called Ab6) VH: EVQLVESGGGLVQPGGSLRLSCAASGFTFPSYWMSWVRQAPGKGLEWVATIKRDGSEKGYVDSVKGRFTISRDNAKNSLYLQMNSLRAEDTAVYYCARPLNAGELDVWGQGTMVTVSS VL: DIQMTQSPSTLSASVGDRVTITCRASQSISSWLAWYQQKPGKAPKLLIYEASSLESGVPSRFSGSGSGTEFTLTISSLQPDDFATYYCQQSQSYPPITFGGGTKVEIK	nM	0.0012

Entry under review: ADI-11828 Fab (Fab, V domains shown, Fab fragment; also called Ab27) VH: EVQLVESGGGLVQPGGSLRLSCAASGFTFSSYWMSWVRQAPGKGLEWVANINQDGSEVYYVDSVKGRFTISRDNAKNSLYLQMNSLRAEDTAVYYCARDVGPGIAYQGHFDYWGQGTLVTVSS VL: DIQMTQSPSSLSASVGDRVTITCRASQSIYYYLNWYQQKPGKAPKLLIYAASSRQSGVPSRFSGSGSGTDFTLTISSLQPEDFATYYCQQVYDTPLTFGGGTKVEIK . Reported Kd? 2.67
